# credit: patent US11896573B2

Assay: Single ascending dose study, plasma pharmacokinetics of Compound (1) and GHB
Format: in vivo, human
Conditions: human, plasma, po, 1.5 g, Cohort 3 (1.50 g) single oral dose, fasted; read-out: Compound (1) plasma AUC0-inf, Median
assay_metric: AUC(0-inf)

State the recorded AUC(0-inf) for this entry: CC(C)[C@H](N)C(=O)OCCCC(=O)O [Compound (1), 4-((L-valyl)oxy)butanoic acid]
2710 ng·h/mL

====

Experiment: Single ascending dose study, plasma pharmacokinetics of Compound (1) and GHB
Type: in vivo, human
Conditions: human, plasma, po, 6 g, Cohort 6 (6.00 g) single oral dose, fasted; read-out: Compound (1) plasma AUC0-tlast, Median
assay_metric: AUC(0-t)
Write down the value, and be sure its unit follows.

State the recorded AUC(0-t) for this entry: CC(C)[C@H](N)C(=O)OCCCC(=O)O [Compound (1), 4-((L-valyl)oxy)butanoic acid]
18000 ng·h/mL
